- Tested on: T. gondii tachyzoites (type II ME49-FLuc)
- measurementProtocol: Luciferase-based tachyzoite growth assay
- Assay type: cell-based, Toxoplasma gondii
- conditionsUsed: Toxoplasma gondii, Table 2; read-out: T. gondii EC50
pEC50: −log10 of the molar value.
Reported pEC50 values are given for each entry in this list.
measuredQuantity: pEC50

1. CN(C[C@@H]1[C@H](c2ccc(C#Cc3ccccc3)cc2)[C@@H]2CN(C(=O)Nc3ccc(OC4CC4)cc3)CCCCN12)S(C)(=O)=O 7.72
2. COc1ccc(NC(=O)N2CCCCN3[C@H](CN(C)C)[C@H](c4ccc(C#Cc5ccccc5)cc4)[C@@H]3C2)cc1 7.64
3. COc1ccc(NC(=O)N2CCCCN3[C@H](CN(C)S(C)(=O)=O)[C@H](c4ccc(C#Cc5ccccc5)cc4)[C@@H]3C2)cc1 7.46
4. COc1ccc(NC(=O)N2CCCCN3[C@H](CO)[C@H](c4ccc(C#Cc5ccccc5)cc4)[C@@H]3C2)cc1 7.54

----------
- measurementProtocol: in vivo
- Set-up: species or system mouse
- conditionsUsed: female, CD1, mouse, in vivo, po, 10 mg/kg/day, mouse, 10 mg/kg/day p.o., Day 4
measuredQuantity: AUC(0-inf) (ng·h/mL)

1) COc1ccc(NC(=O)N2CCCCN3[C@H](CN(C)C)[C@H](c4ccc(C#Cc5ccccc5)cc4)[C@@H]3C2)cc1 27700

----------
- Test system: T. gondii tachyzoites (type II ME49-FLuc)
- measurementProtocol: Luciferase-based tachyzoite growth assay
- Type: cell-based, Toxoplasma gondii
- Parameters: unit: µM
- conditionsUsed: Fig 1A rank order, T. gondii growth
Reported EC50 log inhib vs normalized response values are given for each entry in this list.

molecule	EC50 log inhib vs normalized response
COc1ccc(NC(=O)N2CCCCN3[C@H](CO)[C@H](c4ccc(C#Cc5ccccc5)cc4)[C@@H]3C2)cc1 [BRD3444]	0.02885
COc1ccc(NC(=O)N2CCCCN3[C@H](CN4CCC4)[C@H](c4ccc(C#Cc5ccccc5)cc4)[C@@H]3C2)cc1 [BRD8493]	0.4416
COc1ccc(NC(=O)N2CCCCN3[C@H](CO)[C@H](c4ccc(C#Cc5ccccc5)cc4)[C@H]3C2)cc1 [BRD3182]	1.697
COc1ccc(NC(=O)N2CCCCN3[C@@H](CO)[C@H](c4ccc(C#Cc5ccccn5)cc4)[C@@H]3C2)cc1 [BRD9257]	0.6463
COc1ccc(NC(=O)N2CCCCN3C[C@H](c4ccc(C#Cc5ccccc5)cc4)[C@@H]3C2)cc1 [BRD3914]	0.07697
COc1ccc(NC(=O)N2CCCN3[C@H](CO)[C@H](c4ccc(C#Cc5ccccc5)cc4)[C@@H]3C2)cc1 [BRD9599]	1.748

----------
- measurementProtocol: in vitro
- Format: cell-based, human
- conditionsUsed: human; nuclei count, 44 h, top 20 μM; read-out: SH-SY5Y EC50
pEC50: −log10 of the molar value.
Reported pEC50 values are given for each entry in this list.
measuredQuantity: pEC50

molecule	observedMeasurement
COc1ccc(NC(=O)N2CCCCN3[C@H](CO)[C@H](c4ccc(C#Cc5ccccc5)cc4)[C@@H]3C2)cc1 [BRD3444]	5.57
COc1ccc(NC(=O)N2CCCCN3[C@H](CN(C)S(C)(=O)=O)[C@H](c4ccc(C#Cc5ccccc5)cc4)[C@@H]3C2)cc1 [BRD8494]	5.75
COc1ccc(NC(=O)N2CCCCN3[C@H](CN(C)C)[C@H](c4ccc(C#Cc5ccccc5)cc4)[C@@H]3C2)cc1 [BRD7929]	6.14
CN(C[C@@H]1[C@H](c2ccc(C#Cc3ccccc3)cc2)[C@@H]2CN(C(=O)Nc3ccc(OC4CC4)cc3)CCCCN12)S(C)(=O)=O [BRD2987]	5.63
